Test system: replicon cells
DETAILS: CC50, MTS assay three days post dosing in replicon cells
Provide the reported Cytotoxicity of each item.
# number only, unit µM dropped from output

Looking up CCCCCCCCCCCCCCCCCC(=O)Nc1ccn(C2O[C@H](CO[P@](=O)(N[C@@H](C)C(=O)OC(C)C)Oc3ccccc3)[C@@H](O)[C@@]2(C)C#N)c(=O)n1 (stereo partly shown) [Compound 11] , I see its Cytotoxicity listed as 25

Looking up CCCCCCCCCCCCCCCCCC(=O)O[C@@H]1[C@@H](COP(=O)(N[C@@H](C)C(=O)OC(C)C)Oc2ccccc2)O[C@@H](n2ccc(N)nc2=O)[C@]1(C)N=[N+]=[N-] (stereo partly shown) [Compound 17] , I see its Cytotoxicity listed as 9.9

Looking up CCCCC(=O)O[C@@H]1[C@@H](COP(=O)(N[C@@H](C)C(=O)OC(C)C)Oc2ccccc2)O[C@@H](n2ccc(=O)[nH]c2=O)[C@]1(C)C#N (stereo partly shown) [Compound 28] , I see its Cytotoxicity listed as 76

Looking up CCCC(CCC)C(=O)O[C@@H]1[C@@H](COP(=O)(N[C@@H](C)C(=O)OC(C)C)Oc2ccccc2)O[C@@H](n2ccc(N)nc2=O)[C@]1(C)N=[N+]=[N-] (stereo partly shown) [Compound 16] , I see its Cytotoxicity listed as 13

Looking up CC(C)OC(=O)[C@H](C)N[P@@](=O)(OC[C@H]1OC(n2ccc(NC(=O)C(C)C)nc2=O)[C@](C)(C#N)[C@@H]1O)Oc1ccccc1 (stereo partly shown) [Compound 10] , I see its Cytotoxicity listed as 10

Looking up CCCC(CCC)C(=O)O[C@@H]1[C@@H](COP(=O)(N[C@@H](C)C(=O)OC(C)C)Oc2ccccc2)O[C@@H](n2ccc(=O)[nH]c2=O)[C@]1(C)C#N (stereo partly shown) [Compound 29] , I see its Cytotoxicity listed as 20

Looking up CC(C)OC(=O)[C@H](C)NP(=O)(OC[C@H]1O[C@@H](n2ccc(NC(=O)C(C)C)nc2=O)[C@](C)(C#N)[C@@H]1OC(=O)C(C)C)Oc1ccccc1 (stereo partly shown) [Compound 12] , I see its Cytotoxicity listed as 76

Looking up CCCCCCCCCCCCCCCCCC(=O)O[C@@H]1[C@@H](CO[P@](=O)(N[C@@H](C)C(=O)OC(C)C)Oc2ccccc2)OC(n2ccc(N)nc2=O)[C@]1(C)C#N (stereo partly shown) [Compound 8] , I see its Cytotoxicity listed as 6.54
